target: DYRK1A (Homo sapiens, UniProt Q13627); construct: purchased in-house DSF panel (SGC Frankfurt); experiment: DSF; assay type: binding
measurement-label: ΔTm DYRK1A (°C)

COC(=O)c1cc(Nc2ccnc(NCc3ccc(NC(=O)OC(C)(C)C)cc3)n2)[nH]n1 [21i]: 3.4

P: CC(C)(C)OC(=O)Nc1ccc(CNc2nccc(Nc3cc(C(=O)OC(C)(C)C)[nH]n3)n2)cc1 [43d]
Q: CC(C)OC(=O)c1cc(Nc2ccnc(NCc3ccc(NC(=O)OC(C)(C)C)cc3)n2)n[nH]1 [42d]
Req: Please let me know which one, P or Q , has a lower measured ΔTm DYRK1A value. Record your answer as the label of the chosen record.
Resp: Q
